Test system: Malme-3M
Procedure Text: NCI tumour cell line growth inhibition, 48 h
Calls of active or inactive are those of the source. Rule as the data show it: active = GI50 up to about 1.1 µM and inactive = higher.
The following compounds are shown together with reported GI50 values.

Qu. # lookup: GI50 of O=C1c2ccccc2C(=O)C2C1C1C(=O)c3ccccc3C(=O)C21 (stereo not given)
Ans. 55.1 µM (inactive)

---

System: CAKI-1
Procedure Text: NCI tumour cell line growth inhibition, 48 h
Active and inactive are the calls of the source. Cut-off read from the data, not from the text of the source: active = GI50 up to about 1.1 µM and inactive = higher.
Write down the outcome that applies. Available outcomes: 1.0 for active, 0.0 for inactive

{"Compound": "NN(CC(=O)O)CC(=O)O", "Label Value": 0.0}
{"Compound": "COC(=O)[C@H](Cc1ccccc1)NP(=O)(OCCC#N)OCC1OC(n2cc(C)c(=O)[nH]c2=O)CC1N=[N+]=[N-] (some centres undefined)", "Label Value": 0.0}
{"Compound": "COc1ccc(CNc2cnc3ccc(N)cc3n2)cc1OC", "Label Value": 0.0}

Then this compound:
Qu. Please share the test call associated with COc1nc(NC2OCC(OC(C)=O)C(OC(C)=O)C2OC(C)=O)c(/N=C(\C)C(C)=O)c(=O)n1C (centres undefined) .
Ans. 0.0

Cited source: ChEMBL document CHEMBL1201862
